Values from patent US8492371B2

Target: rat CB2 receptors (Rattus norvegicus, UniProt Q9QZN9)
Construct: expressed in transfected cells; host or cells: HEK293
Sequence (Q9QZN9 1-360): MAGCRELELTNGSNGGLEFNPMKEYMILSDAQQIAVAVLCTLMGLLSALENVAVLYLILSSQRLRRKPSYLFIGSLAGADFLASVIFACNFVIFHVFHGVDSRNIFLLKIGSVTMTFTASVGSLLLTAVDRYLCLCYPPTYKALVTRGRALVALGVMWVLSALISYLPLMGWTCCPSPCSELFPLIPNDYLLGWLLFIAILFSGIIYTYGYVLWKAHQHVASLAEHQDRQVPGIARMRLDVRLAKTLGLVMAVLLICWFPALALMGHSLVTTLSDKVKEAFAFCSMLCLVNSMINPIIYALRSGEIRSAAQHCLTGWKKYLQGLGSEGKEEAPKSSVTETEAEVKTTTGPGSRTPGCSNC
Experiment: Rat CB2 radioligand binding assay ([3H]CP-55,940 competition)
Measured Ki by item
measure: Ki (nM)

[[record]]
compound = "Cn1c(C(C)(C)C)c/c(=N\\C(=O)c2cc(Br)ccc2OCCF)n1C[C@H]1CCCO1"
measure = "Ki"
result = 27

[[record]]
compound = "CN1CC[C@H](Oc2ccc(C(F)(F)F)cc2C(=O)/N=c2\\oc(C(C)(C)C)cn2C[C@H]2CCCO2)C1"
measure = "Ki"
result = 88

[[record]]
compound = "CCOC(=O)CCc1ccc(C(F)(F)F)cc1C(=O)/N=c1\\cc(C(C)(C)C)n(C)n1C[C@H]1CCCO1"
measure = "Ki"
result = 18

[[record]]
compound = "COc1ccc(Cl)cc1C(=O)/N=c1\\sc(C2(C(F)(F)F)CC2)nn1C[C@H]1CCCO1"
measure = "Ki"
result = 2.9

[[record]]
compound = "Cn1c(C(C)(C)C)c/c(=N\\C(=O)c2cc(Br)cc(C(F)(F)F)c2)n1C[C@H]1CCCO1"
measure = "Ki"
result = 9.3

[[record]]
compound = "C=Cc1ccc(C(F)(F)F)cc1C(=O)/N=c1\\cc(C(C)(C)C)n(C)n1C[C@H]1CCCO1"
measure = "Ki"
result = 1.4

[[record]]
compound = "CC(C)[C@@H](CO)NC(=O)/N=c1\\sc(C(C)(C)C)nn1C[C@H]1CCCO1"
measure = "Ki"
result = 73

[[record]]
compound = "COCCNc1ccc(C(F)(F)F)cc1C(=O)/N=c1\\cc(C(C)(C)C)n(C)n1C[C@H]1CCCO1"
measure = "Ki"
result = 5.5

[[record]]
compound = "CC(CCc1ccccc1)NC(=O)/N=c1\\sc(C(C)(C)C)nn1C[C@H]1CCCO1 (stereo partly drawn)"
measure = "Ki"
result = 11

[[record]]
compound = "COc1ccc(C(F)(F)F)cc1C(=O)/N=c1\\cc(C(C)(C)C)n(C)n1CC1CC[C@@H](C)O1 (mixture of isomers)"
measure = "Ki"
result = 6.2

[[record]]
compound = "CCOCCCOc1ccc(C(F)(F)F)cc1C(=O)/N=c1\\cc(C(C)(C)C)n(C)n1C[C@H]1CCCO1"
measure = "Ki"
result = 14

[[record]]
compound = "Cn1c(C(C)(C)C)c/c(=N\\C(=O)c2cc(F)ccc2Cl)n1C[C@H]1CCCO1"
measure = "Ki"
result = 54

[[record]]
compound = "COC/C=C/c1ccc(C(F)(F)F)cc1C(=O)/N=c1\\cc(C(C)(C)C)n(C)n1C[C@H]1CCCO1"
measure = "Ki"
result = 5.8

[[record]]
compound = "COC(=O)c1cccc(C(=O)/N=c2\\cc(C(C)(C)C)n(C)n2C[C@H]2CCCO2)c1"
measure = "Ki"
result = 5.4

[[record]]
compound = "COCCOc1ccc(C(F)(F)F)cc1C(=O)/N=c1\\cc(C(C)(C)C)n(C)n1C[C@H]1CCCO1"
measure = "Ki"
result = 19

